Target: T1, human recombinant melanocortin-4 receptor (human, UniProt P32245 1-332)
T1 construct: whole, on cells; cAMP assays used the whole cells; also called hMC4-R; MC4-R
T1 sequence (P32245 whole entry): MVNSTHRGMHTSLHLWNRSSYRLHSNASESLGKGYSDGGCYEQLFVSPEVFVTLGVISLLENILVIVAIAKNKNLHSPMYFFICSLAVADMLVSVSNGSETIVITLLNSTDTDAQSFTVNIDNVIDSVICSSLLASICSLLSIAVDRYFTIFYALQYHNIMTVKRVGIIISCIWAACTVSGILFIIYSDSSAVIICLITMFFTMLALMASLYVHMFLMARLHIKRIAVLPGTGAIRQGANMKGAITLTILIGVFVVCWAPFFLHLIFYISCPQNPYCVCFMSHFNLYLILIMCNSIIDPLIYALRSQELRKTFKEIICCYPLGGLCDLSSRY
Assay: competitive inhibition of [I125]-NDP-α-MSH, hMC4-R HEK-293 membranes
Bridge positions count the residues as written; N and C are the ends. Square brackets hold non-standard residues; d marks the D form. Phe(4-CONH2) = NC(=O)c1ccc(C[C@H](N)C(=O)O)cc1; Orn = NCCC[C@H](N)C(=O)O
Measurement Name: Ki (nM)

[
  {
    "Binder": "RXQFRWX (N-acetyl; X2 = Dab; D-Phe 4; X7 = hGlu; side-chain lactam Dab2-hGlu7; C-terminal amide, also called peptide No. 159) [Ac-Arg-cyclo(Dab-Gln-D-Phe-Arg-Trp-hGlu)-NH2]",
    "Ki / nM": 4
  }
]

a. Ac-RKN[dF]RWD-NH2 (lactam 2-7) [Ac-Arg-cyclo(Lys-Asn-D-Phe-Arg-Trp-Asp)-NH2]
b. Ac-RD[Phe(4-CONH2)][dF]RWK-NH2 (lactam 2-7, also called peptide No. 50) [Ac-Arg-cyclo(Asp-Phe(4-(C(═O)-NH2))-D-Phe-Arg-Trp-Lys)-NH2]
c. Ac-RE[Orn][dF]RW[Orn]-OH (lactam 2-7, also called peptide No. 90) [Ac-Arg-cyclo(Glu-Orn-D-Phe-Arg-Trp-Orn)-OH]
Prompt line: Rank descending by Ki. # format: label list in the order the request specifies
Response line: b, c, a

FYI, the data here is from patent US20120178701A1.
